All values here come from the supplement of paper PMC9170038.

Known apparent KD of MS2 coat protein of a selection of sequences
Test system: MS2 coat protein
Test: apparent KD of MS2 coat protein; designed switch direction (-1 OFF switch, 1 ON switch): -1; higher = weaker reporter binding
Conditions: input ligand: none
# number only, unit nM dropped from output

Take a look at these entries with their results.
Inquiry: Which value of apparent KD of MS2 coat protein has been reported for UACAGUCAUCCUUGUUGUUACAUGAGGAUCACCCAUGUUAGUAUAAUUAAGUUAUGUAAGUUUGUUGUUCGUUUUAU [JR_STOV1_v2_Sub076] (Eterna round: R97, puzzle: Sensor, turn-off variant 1) in the records?
Reply text: 101

Inquiry: Which value of apparent KD of MS2 coat protein has been reported for ACAUGAGGAUCACCCAUGUGCACGUAAUGGCUCAUGUAGAGUGAGGAUAUGCGUGGCGAACUCGCGCAGAAGGCACAAGACUGG [Deportation 19 - Jieux - Exclusion NG 3] (Eterna round: R96, puzzle: Exclusion NG 3) in the records?
Reply text: 82.5

Next sequence, apparent KD of MS2 coat protein to be filled in.
Inquiry: Which value of apparent KD of MS2 coat protein has been reported for UAAUUGUGAGGAUAUUCGUUUAACACGGAGACGUGUUGAACGGAGAAGGCACAUGAGGAUCACCCAUGUUCCUU [Mat - Exclusion 4 - JL Mod - D17] (Eterna round: R97, puzzle: Exclusion 4) in the records?
Reply text: 19.3
